Data provenance is patent US7906310B2.

Assay: pNA assay: protease activity with 1 mM Cu2+ relative to control without Cu2+
Type: biochemical
Settings: 1 mM Cu2+; enzyme 1 mg/l; Suc-AAPF-pNA; pH 7, 25° C.
Use 80 mOD405/min as the dividing line for Enzyme Activity, +1 mM Cu^2+, with the line itself on the True side and lower values as False.

# input Given Brachysporiella protease: protease from Brachysporiella gayana CGMCC 0865, amino acids 1-186 of SEQ ID NO: 14 (protein, listed as Brachysporiella gayana) MELTSLIAALAVILPIAYGVPMDATTNLSPKVLAAMKRDLGLDAREATARVTFERRAGDVIEELRSSLGDSFAGAWVTDGKVINIGVTDQALVSKVKEAGAEPMVMKNSLGKLQEAKKKLDQIIKEKPKTLSTSGKPGIATYYVDIETNKLIITALSTSITQAEDLAKEVGLSESEFEVRKTEKMP , state whether its Enzyme Activity, +1 mM Cu^2+ is at least 80 mOD405/min.
# output False

# input Next up: Protease 18: protease from Nocardiopsis dassonvillei subsp. dassonvillei DSM 43235, amino acids 1-188 of SEQ ID NO: 12 (protein, Nocardiopsis dassonvillei subspecies dassonvillei) APAPVPQTPVADDSAASMTEALKRDLDLTSAEAEELLSAQEAAIETDAEATEAAGEAYGGSLFDTETLELTVLVTDASAVEAVEATGAQATVVSHGTEGLTEVVEDLNGAEVPESVLGWYPDVESDTVVVEVLEGSDADVAALLADAGVDSSSVRVEEAEEAPQVYADIIGGLAYYMGGRCSVGFAAT
# output True

# input Next up: Protease 11: protease from Nocardiopsis prasina DSM 15648, amino acids 1-188 of SEQ ID NO: 6 (protein, listed as Nocardiopsis prasina) ATGPLPQSPTPEADAVSMQEALQRDLGLTPLEADELLAAQDTAFEVDEAAAAAAGDAYGGSVFDTETLELTVLVTDAASVEAVEATGAGTELVSYGIEGLDEIIQDLNAADAVPGVVGWYPDVAGDTVVLEVLEGSGADVSGLLADAGVDASAVEVTSSAQPELYADIIGGLAYTMGGRCSVGFAATN
# output True

# input Next up: Protease 35: protease from Nocardiopsis prasina DSM 15649, amino acids 1-188 of SEQ ID NO: 8 (protein, listed as Nocardiopsis prasina) ATGPLPQSPTPEADAVSMQEALQRDLGLTPLEADELLAAQDTAFEVDEAAAEAAGDAYGGSVFDTETLELTVLVTDSAAVEAVEATGAGTELVSYGITGLDEIVEELNAADAVPGVVGWYPDVAGDTVVLEVLEGSGADVGGLLADAGVDASAVEVTTTEQPELYADIIGGLAYTMGGRCSVGFAATN
# output False

# input Next up: Protease 08: protease from Nocardiopsis alba DSM 15647, amino acids 1-188 of SEQ ID NO: 10 (protein, listed as Nocardiopsis alba) ATGPLPQSPTPDEAEATTMVEALQRDLGLSPSQADELLEAQAESFEIDEAATAAAADSYGGSIFDTDSLTLTVLVTDASAVEAVEAAGAEAKVVSHGMEGLEEIVADLNAADAQPGVVGWYPDIHSDTVVLEVLEGSGADVDSLLADAGVDTADVKVESTTEQPELYADIIGGLAYTMGGRCSVGFAA
# output True

# input Next up: Metarhizium protease: known protease derived from Metarhizium anisopliae, amino acids 1-188 of SEQ ID NO: 4 (protein, listed as Metarhizium anisopliae) MELTKFLALLAVILPVAYGAPTQAASLHPQILEAMKRDLGLNAEQATVRVAREIHATDVIEQLRSSVAFAGAWIDADVLYIGITDQALADEVTAAGATPIVMTNSLSKLEKAKEDLDKIFIGRANTLETSSDTSSGIASYFVDVAANKLVIEALADSHGHAEQLAAQVGLTSEFEVRTVETMPTTMAT
# output False
